Experimental system: T1, canine NGF tagged at the C-terminus with the Flag tag (canine, UniProt A0A8I3PYI3 122-241)
T1 construct: mature; Expressed with baculovirus technology; also called feline NGF (processed form identical)
T1 sequence (A0A8I3PYI3 entry or part of it): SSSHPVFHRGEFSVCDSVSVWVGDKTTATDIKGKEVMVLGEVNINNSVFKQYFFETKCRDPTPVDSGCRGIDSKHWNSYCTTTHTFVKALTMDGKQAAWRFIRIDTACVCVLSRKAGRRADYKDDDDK
Experiment: SPR off-rate screen, Fab-SASA on BSA chip
Form field: Ratio WT-kd/clone-kd (one value per entry).

Give Ratio WT-kd/clone-kd for the following binder: felinized clone 101 Fab-SASA variant S30V (VL) (Fab, V domains shown, not shown: small tags and cut ends) VH: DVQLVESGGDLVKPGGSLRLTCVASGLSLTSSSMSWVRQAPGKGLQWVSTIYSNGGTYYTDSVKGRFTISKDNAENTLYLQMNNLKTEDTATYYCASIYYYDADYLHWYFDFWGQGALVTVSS VL: EIQMTQSPTSLSASVGDRVTITCRASEGIVNNLSWYQQTPGKAPKLLIYATSNLHSGVPSRFSGSGSGTDFTLTISSLQPEDFATYYCQQGYKWPLTFGGGTKLEITR 1.95

API: the following record is the query input.
Give Ratio WT-kd/clone-kd for the following binder: felinized clone 101 Fab-SASA variant R24F (VL) (Fab, V domains shown, not shown: small tags and cut ends) VH: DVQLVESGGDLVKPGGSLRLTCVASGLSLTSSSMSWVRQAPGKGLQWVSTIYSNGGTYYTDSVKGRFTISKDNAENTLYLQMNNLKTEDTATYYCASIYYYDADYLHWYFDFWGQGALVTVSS VL: EIQMTQSPTSLSASVGDRVTITCFASEGISNNLSWYQQTPGKAPKLLIYATSNLHSGVPSRFSGSGSGTDFTLTISSLQPEDFATYYCQQGYKWPLTFGGGTKLEITR 1.44
